Reference source for all entries: paper PMC5041986

Test system: RT-112 cells
ASSAY: MTT cell viability assay
Assay type: cell-based
TEST_CONTEXT: Homo sapiens, RT-112 (bladder), 72 h
MEASURED_ENDPOINT: IC50 (nM)
Give bare numbers, in nM.

Identify IC50 associated with the compound CCN1CCN(c2ccc(Nc3ncnc(N(C)C(=O)Nc4c(Cl)c(OC)c(Cl)c(OC)c4Cl)n3)cc2)CC1 [MPT0L145]
1630

----------
SYSTEM_NAME: TYK2 (Homo sapiens, UniProt P29597)
MEASURED_ENDPOINT: Kd (nM)
Answers are plain numbers, in nM.

Identify Kd associated with the compound "CCN1CCN(c2ccc(Nc3ncnc(N(C)C(=O)Nc4c(Cl)c(OC)c(Cl)c(OC)c4Cl)n3)cc2)CC1"
660

----------
SYSTEM_NAME: FGFR1 (Homo sapiens, UniProt P11362)
Sequence (P11362 22-822): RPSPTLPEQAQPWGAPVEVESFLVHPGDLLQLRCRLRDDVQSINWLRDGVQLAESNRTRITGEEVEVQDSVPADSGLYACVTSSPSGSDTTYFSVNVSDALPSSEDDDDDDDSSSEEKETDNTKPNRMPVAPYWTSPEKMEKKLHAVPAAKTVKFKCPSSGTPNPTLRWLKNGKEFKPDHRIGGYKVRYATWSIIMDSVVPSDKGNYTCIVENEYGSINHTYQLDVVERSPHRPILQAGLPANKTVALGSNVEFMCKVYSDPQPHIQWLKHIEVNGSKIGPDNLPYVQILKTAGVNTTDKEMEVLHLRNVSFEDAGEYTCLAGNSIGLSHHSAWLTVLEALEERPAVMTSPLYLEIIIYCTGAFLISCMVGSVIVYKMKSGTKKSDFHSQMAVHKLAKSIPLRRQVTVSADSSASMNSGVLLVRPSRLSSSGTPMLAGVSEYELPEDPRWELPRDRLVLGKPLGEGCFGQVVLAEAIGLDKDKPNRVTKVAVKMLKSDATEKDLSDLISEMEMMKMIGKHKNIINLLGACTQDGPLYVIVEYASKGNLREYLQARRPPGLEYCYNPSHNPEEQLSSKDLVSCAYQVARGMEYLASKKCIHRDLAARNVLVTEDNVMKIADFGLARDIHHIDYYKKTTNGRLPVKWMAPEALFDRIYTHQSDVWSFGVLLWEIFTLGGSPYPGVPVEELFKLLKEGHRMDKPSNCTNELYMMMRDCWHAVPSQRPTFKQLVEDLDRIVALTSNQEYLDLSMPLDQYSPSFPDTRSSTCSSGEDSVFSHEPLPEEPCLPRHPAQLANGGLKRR
MEASURED_ENDPOINT: pKd
Give bare numbers, as −log10 of the molar value.

Identify pKd associated with the compound "CCN1CCN(c2ccc(Nc3ncnc(N(C)C(=O)Nc4c(Cl)c(OC)c(Cl)c(OC)c4Cl)n3)cc2)CC1"
6.89

----------
SYSTEM_NAME: VEGFR2 (Homo sapiens, UniProt P35968)
Sequence (P35968 20-1356): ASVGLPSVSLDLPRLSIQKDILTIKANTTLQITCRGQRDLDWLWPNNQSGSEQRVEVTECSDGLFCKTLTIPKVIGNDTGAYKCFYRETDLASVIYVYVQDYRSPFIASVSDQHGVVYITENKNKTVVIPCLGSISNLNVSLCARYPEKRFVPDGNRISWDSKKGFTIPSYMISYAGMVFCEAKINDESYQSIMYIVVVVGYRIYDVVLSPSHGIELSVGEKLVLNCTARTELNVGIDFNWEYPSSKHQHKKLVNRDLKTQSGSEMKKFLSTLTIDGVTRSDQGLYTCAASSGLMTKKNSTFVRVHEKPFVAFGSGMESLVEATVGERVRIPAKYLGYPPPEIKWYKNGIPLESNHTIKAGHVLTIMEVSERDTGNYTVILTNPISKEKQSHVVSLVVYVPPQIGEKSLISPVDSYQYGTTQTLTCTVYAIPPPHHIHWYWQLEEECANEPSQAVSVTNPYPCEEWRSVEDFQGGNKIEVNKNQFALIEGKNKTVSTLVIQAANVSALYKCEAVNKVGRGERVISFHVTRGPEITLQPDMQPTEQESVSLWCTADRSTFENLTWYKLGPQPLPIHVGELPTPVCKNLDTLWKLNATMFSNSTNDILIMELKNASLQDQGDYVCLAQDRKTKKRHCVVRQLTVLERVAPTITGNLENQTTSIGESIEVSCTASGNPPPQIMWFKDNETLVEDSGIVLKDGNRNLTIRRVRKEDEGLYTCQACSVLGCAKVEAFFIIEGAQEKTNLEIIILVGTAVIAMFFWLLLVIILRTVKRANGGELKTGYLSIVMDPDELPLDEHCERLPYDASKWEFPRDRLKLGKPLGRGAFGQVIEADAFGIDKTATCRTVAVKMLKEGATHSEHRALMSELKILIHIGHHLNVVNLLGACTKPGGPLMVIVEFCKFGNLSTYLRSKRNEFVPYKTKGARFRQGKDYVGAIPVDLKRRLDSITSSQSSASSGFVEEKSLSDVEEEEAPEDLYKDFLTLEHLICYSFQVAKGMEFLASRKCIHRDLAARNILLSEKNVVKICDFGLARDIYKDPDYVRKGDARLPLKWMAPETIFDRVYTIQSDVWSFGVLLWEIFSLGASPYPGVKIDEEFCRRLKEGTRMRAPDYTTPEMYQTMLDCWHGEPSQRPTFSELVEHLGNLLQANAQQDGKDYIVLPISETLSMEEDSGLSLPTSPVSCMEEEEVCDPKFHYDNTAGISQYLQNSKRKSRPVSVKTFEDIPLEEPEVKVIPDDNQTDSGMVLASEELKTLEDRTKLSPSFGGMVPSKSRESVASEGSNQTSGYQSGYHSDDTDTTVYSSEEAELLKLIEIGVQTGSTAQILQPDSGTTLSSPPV
MEASURED_ENDPOINT: Kd (µM)
Numbers only, in µM.

Identify Kd associated with the compound "CCN1CCN(c2ccc(Nc3ncnc(N(C)C(=O)Nc4c(Cl)c(OC)c(Cl)c(OC)c4Cl)n3)cc2)CC1"
3.1

----------
SYSTEM_NAME: FLT3 (Homo sapiens)
Sequence (P36888 27-993): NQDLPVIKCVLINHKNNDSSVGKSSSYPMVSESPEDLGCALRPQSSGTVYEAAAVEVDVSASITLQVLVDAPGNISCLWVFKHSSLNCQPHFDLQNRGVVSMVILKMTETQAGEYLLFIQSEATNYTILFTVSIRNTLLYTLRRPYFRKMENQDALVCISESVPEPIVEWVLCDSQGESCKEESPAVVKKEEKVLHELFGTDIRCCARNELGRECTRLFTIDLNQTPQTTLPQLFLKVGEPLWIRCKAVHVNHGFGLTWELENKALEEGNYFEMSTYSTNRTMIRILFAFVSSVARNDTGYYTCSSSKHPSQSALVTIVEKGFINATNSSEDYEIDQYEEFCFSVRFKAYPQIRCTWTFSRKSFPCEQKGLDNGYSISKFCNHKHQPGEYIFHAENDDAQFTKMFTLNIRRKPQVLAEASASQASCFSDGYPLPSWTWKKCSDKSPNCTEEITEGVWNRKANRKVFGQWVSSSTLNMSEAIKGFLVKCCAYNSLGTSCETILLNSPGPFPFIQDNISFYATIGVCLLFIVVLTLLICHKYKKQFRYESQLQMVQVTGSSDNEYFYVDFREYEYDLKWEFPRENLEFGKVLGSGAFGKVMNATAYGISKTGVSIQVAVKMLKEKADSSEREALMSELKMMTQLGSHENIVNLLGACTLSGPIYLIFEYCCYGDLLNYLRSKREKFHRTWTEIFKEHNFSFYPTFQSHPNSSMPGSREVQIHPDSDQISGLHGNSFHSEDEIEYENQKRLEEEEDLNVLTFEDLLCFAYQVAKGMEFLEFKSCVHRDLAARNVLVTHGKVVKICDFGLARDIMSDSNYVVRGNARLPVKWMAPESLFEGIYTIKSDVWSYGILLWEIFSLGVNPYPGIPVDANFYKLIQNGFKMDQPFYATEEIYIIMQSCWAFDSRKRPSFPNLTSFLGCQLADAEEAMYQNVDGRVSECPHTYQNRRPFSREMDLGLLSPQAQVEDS
MEASURED_ENDPOINT: Kd

Provide Kd, system FLT3 (Homo sapiens), entry "CCN1CCN(c2ccc(Nc3ncnc(N(C)C(=O)Nc4c(Cl)c(OC)c(Cl)c(OC)c4Cl)n3)cc2)CC1"
1300 nM

----------
Tested on: PLC/PRF/5 cells
ASSAY: MTT cell viability assay
Assay type: cell-based
TEST_CONTEXT: PLC5/PRF/5, 5 μM, 72 h, mean
MEASURED_ENDPOINT: Viability (% of control cells) PLC5/PRF/5 (5 μM)

COc1c(Cl)c(NC(=O)N(C)c2cc(-c3ccc(F)cc3)ncn2)c(Cl)c(OC)c1Cl :: 55.3 % of control cells

For each entry beneath this line, provide reported Viability (% of control cells) PLC5/PRF/5 (5 μM).
1. CCN1CCN(c2ccc(Nc3cc(N(C)C(=O)Nc4c(Cl)c(OC)c(Cl)c(OC)c4Cl)ncn3)cc2)CC1
2. COc1c(Cl)c(NC(=O)N(C)c2cc(-c3ccc(Cl)cc3)ncn2)c(Cl)c(OC)c1Cl
3. CCN1CCN(c2ccc(Nc3ncnc(N(C)C(=O)Nc4c(Cl)c(OC)c(Cl)c(OC)c4Cl)n3)cc2)CC1
4. CCN1CCN(c2ccc(-c3cc(N(C)C(=O)Nc4c(Cl)c(OC)c(Cl)c(OC)c4Cl)ncn3)cc2)CC1

1. 72.6 % of control cells
2. 44.4 % of control cells
3. 20.6 % of control cells
4. 78.3 % of control cells

----------
Test system: RT-112 cells
ASSAY: MTT cell viability assay
Assay type: cell-based
TEST_CONTEXT: RT-112, 10 μM, 72 h, mean
MEASURED_ENDPOINT: Viability (% of control cells) RT-112 (10 μM)

Below: 3 molecules and their reported Viability (% of control cells) RT-112 (10 μM).
COc1c(Cl)c(NC(=O)N(C)c2cc(-c3cccnc3)ncn2)c(Cl)c(OC)c1Cl :: 85.0 % of control cells
COc1c(Cl)c(NC(=O)N(C)c2cc(-c3cccc([N+](=O)[O-])c3)ncn2)c(Cl)c(OC)c1Cl :: 63.8 % of control cells
COc1c(Cl)c(NC(=O)N(C)c2cc(-c3ccc(Cl)cc3)ncn2)c(Cl)c(OC)c1Cl :: 34.8 % of control cells

For each entry beneath this line, provide reported Viability (% of control cells) RT-112 (10 μM).
1. COc1c(Cl)c(NC(=O)N(C)c2cc(-c3ccc(C#N)cc3)ncn2)c(Cl)c(OC)c1Cl
2. COc1c(Cl)c(NC(=O)N(C)c2cc(-c3cccc(C#N)c3)ncn2)c(Cl)c(OC)c1Cl
3. COc1c(Cl)c(NC(=O)N(C)c2cc(-c3ccco3)ncn2)c(Cl)c(OC)c1Cl
4. CCN1CCN(c2ccc(Nc3ncnc(N(C)C(=O)Nc4c(Cl)c(OC)c(Cl)c(OC)c4Cl)n3)cc2)CC1
5. CCN1CCN(c2ccc(Nc3cc(N(C)C(=O)Nc4c(Cl)c(OC)c(Cl)c(OC)c4Cl)ncn3)cc2)CC1
6. COc1c(Cl)c(NC(=O)N(C)c2cc(-c3ccc(F)cc3)ncn2)c(Cl)c(OC)c1Cl
7. CCN1CCN(c2ccc(-c3cc(N(C)C(=O)Nc4c(Cl)c(OC)c(Cl)c(OC)c4Cl)ncn3)cc2)CC1

1: 55.3 % of control cells; 2: 75.0 % of control cells; 3: 76.1 % of control cells; 4: 8.5 % of control cells; 5: 12.7 % of control cells; 6: 44.4 % of control cells; 7: 8.6 % of control cells

----------
SYSTEM_NAME: FGFR3 (Homo sapiens, UniProt P22607)
Sequence (P22607 23-806): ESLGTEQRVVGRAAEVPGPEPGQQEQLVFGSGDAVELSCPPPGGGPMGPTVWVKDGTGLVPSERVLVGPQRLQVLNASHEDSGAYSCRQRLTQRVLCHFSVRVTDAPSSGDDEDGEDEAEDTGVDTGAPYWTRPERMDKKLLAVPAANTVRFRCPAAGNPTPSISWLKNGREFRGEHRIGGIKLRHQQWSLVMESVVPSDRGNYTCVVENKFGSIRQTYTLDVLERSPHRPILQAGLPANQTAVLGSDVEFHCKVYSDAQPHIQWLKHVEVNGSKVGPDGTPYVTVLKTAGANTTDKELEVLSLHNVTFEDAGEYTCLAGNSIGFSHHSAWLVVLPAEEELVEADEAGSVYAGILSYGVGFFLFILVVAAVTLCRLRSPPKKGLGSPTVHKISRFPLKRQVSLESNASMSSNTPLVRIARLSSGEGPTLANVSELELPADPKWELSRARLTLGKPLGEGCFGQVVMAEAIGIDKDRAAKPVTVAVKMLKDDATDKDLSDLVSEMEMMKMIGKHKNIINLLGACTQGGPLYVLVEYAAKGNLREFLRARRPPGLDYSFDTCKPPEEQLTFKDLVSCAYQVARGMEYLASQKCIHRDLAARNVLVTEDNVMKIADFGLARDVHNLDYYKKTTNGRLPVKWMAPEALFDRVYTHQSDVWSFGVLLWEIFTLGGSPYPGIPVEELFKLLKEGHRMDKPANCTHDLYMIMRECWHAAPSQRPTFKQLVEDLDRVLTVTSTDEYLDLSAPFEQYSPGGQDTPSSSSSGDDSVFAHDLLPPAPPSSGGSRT
MEASURED_ENDPOINT: pKd
Give bare numbers, as −log10 of the molar value.

Identify pKd associated with the compound CCN1CCN(c2ccc(Nc3ncnc(N(C)C(=O)Nc4c(Cl)c(OC)c(Cl)c(OC)c4Cl)n3)cc2)CC1 [MPT0L145]
6.57

----------
Tested on: SNU-16 cells
ASSAY: MTT cell viability assay
Assay type: cell-based
TEST_CONTEXT: SNU-16, 5 μM, 72 h, mean
MEASURED_ENDPOINT: Viability (% of control cells) SNU-16 (5 μM)

COc1c(Cl)c(NC(=O)N(C)c2cc(-c3ccc(Cl)cc3)ncn2)c(Cl)c(OC)c1Cl :: 76.7 % of control cells
CCN1CCN(c2ccc(-c3cc(N(C)C(=O)Nc4c(Cl)c(OC)c(Cl)c(OC)c4Cl)ncn3)cc2)CC1 :: 63.2 % of control cells
CCN1CCN(c2ccc(Nc3ncnc(N(C)C(=O)Nc4c(Cl)c(OC)c(Cl)c(OC)c4Cl)n3)cc2)CC1 :: 36.9 % of control cells
CCN1CCN(c2ccc(Nc3cc(N(C)C(=O)Nc4c(Cl)c(OC)c(Cl)c(OC)c4Cl)ncn3)cc2)CC1 :: 27.5 % of control cells

The record that follows has no Viability (% of control cells) SNU-16 (5 μM) shown yet.
Identify Viability (% of control cells) SNU-16 (5 μM) associated with the compound "COc1c(Cl)c(NC(=O)N(C)c2cc(-c3ccc(F)cc3)ncn2)c(Cl)c(OC)c1Cl"
80.5 % of control cells

----------
SYSTEM_NAME: Erbb2 (Homo sapiens, UniProt P04626)
MEASURED_ENDPOINT: Kd (µM)
One number for each entry, in µM.

Identify Kd associated with the compound "CCN1CCN(c2ccc(Nc3ncnc(N(C)C(=O)Nc4c(Cl)c(OC)c(Cl)c(OC)c4Cl)n3)cc2)CC1"
10

----------
SYSTEM_NAME: FGFR2 (Homo sapiens, UniProt P21802)
Construct: purchased DiscoverRx (KINOMEscan service)
Sequence (P21802 22-821): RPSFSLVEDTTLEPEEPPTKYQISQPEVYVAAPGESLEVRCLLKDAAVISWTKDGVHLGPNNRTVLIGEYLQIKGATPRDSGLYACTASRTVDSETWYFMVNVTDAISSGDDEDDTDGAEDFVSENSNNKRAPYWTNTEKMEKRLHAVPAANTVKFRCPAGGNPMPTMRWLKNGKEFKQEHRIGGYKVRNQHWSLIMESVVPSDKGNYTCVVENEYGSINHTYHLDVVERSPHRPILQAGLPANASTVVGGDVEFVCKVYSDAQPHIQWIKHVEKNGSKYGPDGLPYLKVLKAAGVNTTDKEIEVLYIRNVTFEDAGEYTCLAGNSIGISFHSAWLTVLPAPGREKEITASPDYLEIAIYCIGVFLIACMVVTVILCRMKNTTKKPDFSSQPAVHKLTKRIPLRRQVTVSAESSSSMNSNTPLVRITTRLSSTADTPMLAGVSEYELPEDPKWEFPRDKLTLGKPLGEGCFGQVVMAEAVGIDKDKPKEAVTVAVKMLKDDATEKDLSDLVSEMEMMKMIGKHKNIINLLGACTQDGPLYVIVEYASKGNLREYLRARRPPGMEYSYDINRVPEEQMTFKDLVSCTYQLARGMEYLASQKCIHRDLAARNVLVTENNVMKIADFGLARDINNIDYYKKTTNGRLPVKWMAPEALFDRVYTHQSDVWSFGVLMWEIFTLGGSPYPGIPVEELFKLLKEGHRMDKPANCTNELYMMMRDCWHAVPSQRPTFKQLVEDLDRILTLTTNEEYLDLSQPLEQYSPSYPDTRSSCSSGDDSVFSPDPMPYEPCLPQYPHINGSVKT
ASSAY: KINOMEscan competition-binding assay
Method: The screening is based on a competition-binding assay and the K d values were determined as described previously.
MEASURED_ENDPOINT: pKd
Answers are plain numbers, as −log10 of the molar value.

Identify pKd associated with the compound CCN1CCN(c2ccc(Nc3ncnc(N(C)C(=O)Nc4c(Cl)c(OC)c(Cl)c(OC)c4Cl)n3)cc2)CC1 [MPT0L145]
6.17

----------
SYSTEM_NAME: FGFR4 (Homo sapiens, UniProt P22455)
MEASURED_ENDPOINT: pKd
Give bare numbers, as −log10 of the molar value.

Identify pKd associated with the compound "CCN1CCN(c2ccc(Nc3ncnc(N(C)C(=O)Nc4c(Cl)c(OC)c(Cl)c(OC)c4Cl)n3)cc2)CC1"
5.12

----------
System: Hep3B cells
ASSAY: MTT cell viability assay
Assay type: cell-based
TEST_CONTEXT: 72 h, mean
For each entry below, report its Viability (% of control cells) Hep3B (5 μM) value.

CCN1CCN(c2ccc(Nc3ncnc(N(C)C(=O)Nc4c(Cl)c(OC)c(Cl)c(OC)c4Cl)n3)cc2)CC1 :: 66.2 % of control cells
COc1c(Cl)c(NC(=O)N(C)c2cc(-c3ccc(F)cc3)ncn2)c(Cl)c(OC)c1Cl :: 72.8 % of control cells
CCN1CCN(c2ccc(-c3cc(N(C)C(=O)Nc4c(Cl)c(OC)c(Cl)c(OC)c4Cl)ncn3)cc2)CC1 :: 96.3 % of control cells

For each entry beneath this line, provide reported Viability (% of control cells) Hep3B (5 μM).
1. COc1c(Cl)c(NC(=O)N(C)c2cc(-c3ccc(Cl)cc3)ncn2)c(Cl)c(OC)c1Cl
2. CCN1CCN(c2ccc(Nc3cc(N(C)C(=O)Nc4c(Cl)c(OC)c(Cl)c(OC)c4Cl)ncn3)cc2)CC1

["54.3 % of control cells", "47.1 % of control cells"]
